read-out: 3-Hydroxy-3-Methylglutaryl-CoA Synthase 2 (HMGCS2), HMGCS2 (gene 3158); assay: LTEA_HepaRG_HMGCS2: Life Technologies and Expression Analysis (LTEA) Assay for 3-Hydroxy-3-Methylglutaryl-CoA Synthase 2 (HMGCS2) using HepaRG (AID 2283504); settings: mRNA level, 48 h; actives raise or lower the signal
The source made the active and inactive calls. Rule for the calls: active = hit-call score of the fitted dose curve at least 0.9, where 1 is the maximum; inactive = score below 0.9.
Respond with a class label; see 1 (yes) for active, 0 (no) for inactive

Would you please look over these solved cases?
COc1cc(S(=O)(=O)O)c(C)cc1N=Nc1c(O)ccc2cc(S(=O)(=O)O)ccc12
0 (no)
CCCCCCCCCCC
0 (no)
CC1(C)CC(N=C=O)CC(C)(CN=C=O)C1 (stereo not drawn)
0 (no)
COCCOCCOC
0 (no)

What did the test return for OC[C@@H](O)[C@@H](O)[C@H](O)[C@H](O)CO ?
0 (no)

Another molecule: CC(=O)OCCOCCOCCOC(C)=O
0 (no)

Another molecule: CCOC(=O)CCC(=O)OCC
0 (no)

Another molecule: Cc1cc(NC(=O)C(=O)O)cc(C)c1Oc1ccc(O)c2c1CCC2
1 (yes)

Another molecule: CC(C)(C)c1cc(O)c(C(C)(C)C)cc1O
1 (yes)

* * *

read-out: Plasminogen activator inhibitor-1 (PAI1), SERPINE1 (gene 5054); test: BSK_BE3C_PAI1: BioMAP Diversity Plus: BE3C Assay for Plasminogen activator inhibitor-1 (PAI1) Biomarker Activity (AID 2283037); conditions: primary human bronchial epithelial cells; actives raise or lower the signal
Active and inactive are the calls of the source. Rule for the calls: active = hit-call score of the fitted dose curve at least 0.9, where 1 is the maximum; inactive = score below 0.9.
Respond with a class label; see 1.0 = active, 0.0 = inactive

CC(=O)OCCOCCOCCOC(C)=O
0.0
O=C(O)Cc1ccccc1Nc1c(Cl)cccc1Cl
0.0
NS(=O)(=O)c1cc2c(cc1Cl)NCNS2(=O)=O
0.0
CC1(C)NC(=O)NC1=O
0.0
O=c1[nH]cc(F)c(=O)[nH]1
0.0

What did the test return for C[C@]12C=CC(=O)C=C1CC[C@@H]1[C@@H]2C(=O)C[C@@]2(C)[C@H]1CC[C@]2(O)C(=O)CO ?
0.0

Another molecule: COc1cc(S(=O)(=O)O)c(C)cc1N=Nc1c(O)ccc2cc(S(=O)(=O)O)ccc12
0.0

Another molecule: Cc1cc(=O)[nH]c(=S)[nH]1
0.0

Another molecule: OC[C@@H](O)[C@@H](O)[C@H](O)[C@H](O)CO
0.0

Another molecule: Cc1oc(-c2ccccc2)nc1CCOc1cccc2c1ccn2CCC(=O)O
0.0

Another molecule: O=[N+]([O-])C(CO)(CO)CO
0.0

* * *

test: ATG_CMV_CIS: Attagene CIS-FACTORIAL HepG2 Assay for human CMV (Internal Marker) (AID 2282928); details: HepG2 CMV promoter reporter, transcription factor profiling; actives raise or lower the signal;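 note: endpoint acts as a background internal control marker rather than a target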
Active and inactive are the calls of the source. The calls were made as follows: active = hit-call score of the fitted dose curve at least 0.9, where 1 is the maximum; inactive = score below 0.9.
Respond with a class label; see active, inactive

Would you please look over these solved cases?
Cc1c(C(=O)O)c(O)cc2c1C(=O)c1c(O)c([C@@H]3O[C@H](CO)[C@@H](O)[C@H](O)[C@H]3O)c(O)c(O)c1C2=O
inactive
CNC(=O)[C@H]1O[C@@H](n2cnc3c(NCc4cc(Cl)ccc4OCc4cc(C)no4)ncnc32)[C@H](O)[C@@H]1N
inactive
CC(=O)C(C)=CC1C(C)=CCCC1(C)C (stereo not given)
inactive
COCCOCCOC
inactive

Attention now shifts to the item below.
What did the test return for C=CCOC(=O)c1ccccc1C(=O)OCC=C ?
active

* * *

assay: ATG_TA_CIS: Attagene CIS-FACTORIAL HepG2 Assay for human TA Basal Promoter (AID 2282964); details: HepG2 Attagene CIS-factorial TA basal promoter reporter; actives raise or lower the signal
Calls of active or inactive are those of the source. How the source made its calls: active means hit-call score of the fitted dose curve at least 0.9, where 1 is the maximum; inactive means score below 0.9.
Respond with a class label; see active, inactive

Would you please look over these solved cases?
O=C(N[C@@H](Cc1ccccc1)[C@@H](O)C(=O)N1C[C@@H](O)[C@@H](O)C1)c1cc2cc(Cl)ccc2[nH]1
active
CCCCCCCCCCO
inactive
Cc1cccc(Nc2cc(Cl)nc(SCC(=O)O)n2)c1C
inactive

What did the test return for Cc1cccc(C)c1O ?
inactive

Another compound: CN1CCCC1=O
inactive

Another compound: CC1(C)CC(N=C=O)CC(C)(CN=C=O)C1 (stereo unspecified)
inactive

* * *

read-out: Early growth response protein 1 (EGR1) transcription factor, EGR1 (gene 1958); assay: LTEA_HepaRG_EGR1: Life Technologies and Expression Analysis (LTEA) Assay for Early growth response protein 1 (EGR1) transcription factor using HepaRG (AID 2283490); details: mRNA level, 48 h; actives raise or lower the signal
Calls of active or inactive are those of the source. How the source made its calls: active means hit-call score of the fitted dose curve at least 0.9, where 1 is the maximum; inactive means score below 0.9.
Respond with a class label; see active, inactive

Would you please look over these solved cases?
CC(C)(C)c1cc(O)c(C(C)(C)C)cc1O
active
O=c1c(O)c(-c2ccc(O)c(O)c2)oc2cc(O)cc(O)c12
inactive
CC(C)c1ccc(C(=O)N=C(N)N)cc1S(C)(=O)=O
active
Nc1ccc(S(=O)(=O)c2ccc(N)cc2)cc1
inactive
Cc1ccc(Cl)cc1
inactive
Nc1nc(N)c2nc(CNc3ccc(C(=O)N[C@@H](CCC(=O)O)C(=O)O)cc3)cnc2n1
active

What did the test return for CNC(=O)[C@H]1O[C@@H](n2cnc3c(NCc4cc(Cl)ccc4OCc4cc(C)no4)ncnc32)[C@H](O)[C@@H]1N ?
inactive

Another compound: Cc1ccc(N(C)C)cc1
inactive

Another compound: Cc1oc(-c2ccccc2)nc1CCOc1cccc2c1ccn2CCC(=O)O
active

* * *

target: Aryl hydrocarbon receptor (Homo sapiens); assay: ATG_Ahr_CIS: Attagene CIS-FACTORIAL HepG2 Assay for human Aryl Hydrocarbon Receptor (Ahr) (AID 2282930); conditions: HepG2 AhR cis-factorial reporter transcription; actives raise or lower the signal
Activity calls are given as the source filed them. How the source made its calls: active means hit-call score of the fitted dose curve at least 0.9, where 1 is the maximum; inactive means score below 0.9.
Respond with a class label; see active, inactive

CC(=O)Oc1ccccc1C(=O)O
inactive
CC(C)c1ccc(C(=O)N=C(N)N)cc1S(C)(=O)=O
inactive
CC(=O)OCCOCCOCCOC(C)=O
inactive
OC[C@@H](O)[C@@H](O)[C@H](O)[C@H](O)CO
inactive
NS(=O)(=O)c1cc2c(cc1Cl)NCNS2(=O)=O
inactive
Cc1oc(-c2ccccc2)nc1CCOc1cccc2c1ccn2CCC(=O)O
inactive
COc1cc(/C=C/C(=O)CC(=O)/C=C/c2ccc(O)c(OC)c2)ccc1O
active
Clc1cc(Cl)c(Cl)cc1Cl
inactive

Attention now shifts to the item below.
What did the test return for O=[N+]([O-])C(CO)(CO)CO ?
active

* * *

Biological target: Heat shock factor protein 1 (Homo sapiens)
Assay: ATG_HSE_CIS: Attagene CIS-FACTORIAL HepG2 Assay for human Heat Shock Transcription Factor 1 (HSE) (AID 2282953)
Settings: HepG2 HSE cis-reporter, Attagene RNA transcription; actives raise or lower the signal
Description: ATG_CIS is a cell-based, multiplexed-readout assay that uses HepG2, a human liver cell line, with measurements taken at 24 hours after chemical dosing in a 24-well plate.ATG_HSE_CIS is one of 52 assay component(s) measured or calculated from the ATG_CIS assay. […] This assay endpoint, ATG_HSE_CIS, was analyzed with bidirectional fitting relative to DMSO as the negative control and baseline of activity. […]
Calls of active or inactive are those of the source. How the source made its calls: active means hit-call score of the fitted dose curve at least 0.9, where 1 is the maximum; inactive means score below 0.9.
Respond with a class label; see active, inactive

CC(C)c1ccc(C(=O)N=C(N)N)cc1S(C)(=O)=O
inactive
Cc1nc(-c2ccc3c(c2)CCN(CCC2CCC(NC(=O)/C=C/c4ccc(F)cc4)CC2)CC3)no1 (stereo unspecified)
inactive

What did the test return for CC=Cc1ccc(O)c(OC)c1 ?
inactive

Another compound: CC(=O)OC/C=C(\C)CCC=C(C)C
inactive

Another compound: NS(=O)(=O)c1cc2c(cc1Cl)NCNS2(=O)=O
inactive

* * *

Read-out: CD38, CD38 (gene 952)
Assay: BSK_SAg_CD38: BioMAP Diversity Plus: SAg Assay for CD38 Biomarker Activity (AID 2283087)
Conditions: primary human HUVEC with PBMC; actives raise or lower the signal
Procedure: BSK_SAg is a cell-based, multiplexed-readout assay that uses umbilical vein endothelium and peripheral blood mononuclear cells, a human vascular primary cell co-culture, with measurements taken at 24 hours after chemical dosing in a 96-well plate.BSK_SAg_CD38 is one of 10 assay component(s) measured or calculated from the BSK_SAg assay. […] This assay endpoint, BSK_SAg_CD38, was analyzed with bidirectional fitting relative to DMSO as the negative control and baseline of activity. […]
Calls of active or inactive are those of the source. Rule for the calls: active = hit-call score of the fitted dose curve at least 0.9, where 1 is the maximum; inactive = score below 0.9.
Respond with a class label; see 1 = active, -1 = inactive

CCCCC(CC)COC(=O)CC(C(=O)OCC(CC)CCCC)S(=O)(=O)O (centres undefined)
1
CC(=O)C(C)=CC1C(C)=CCCC1(C)C (centres undefined)
-1
Cc1cccc(C)c1O
-1
CC(=O)OC/C=C(\C)CCC=C(C)C
-1
FC(F)(F)C(F)(F)C(F)(F)C(F)(F)C(F)(F)C(F)(F)CCI
-1
CCOc1ccc2c(c1)C(C)=CC(C)(C)N2
-1

What did the test return for COc1ccc2c(c1)c(CC(=O)O)c(C)n2C(=O)c1ccc(Cl)cc1 ?
-1

Another compound: C=CCOC(=O)c1ccccc1C(=O)OCC=C
-1

Another compound: Oc1ccc2c(c1)OC[C@@H](N1CCC(O)(c3ccc(F)cc3)CC1)[C@H]2O
-1
